Hey, just so you know, these numbers are from patent US20240368168A1.

test target: SARM1 protein in iSARM1 (HEK293) cells (Homo sapiens)
Construct: The full-length SARM1 was synthesized into the pUC57 plasmid by WZ Biosciences Inc., and PCR was performed using pUC57-SARM1 as a DNA template
method notes: Inhibitory activity in inducible SARM1 overexpressing cell line, intracellular cADPR level
test conditions: activator CZ-48 100 μM, cADPR content
pEC50: −log10 of the molar value.
pEC50 values by entry

- molecule: "Cc1ccccc1-c1cnc2ccc(N(C)C(=O)OC(C)(C)C)cn12 [Compound 10]"
  pEC50: "> 6.00"
- molecule: "CN(C(=O)OC(C)(C)C)c1ccc2ncc(-c3cccc(NC(=O)COCCOCc4ccccc4)c3)n2c1 [Compound 244]"
  pEC50: "> 6.00"
- molecule: "CN(C(=O)OC(C)(C)C)c1ccc2ncc(C3CCCCC3)n2c1 [Compound 84]"
  pEC50: "> 6.00"
- molecule: "CNc1ccc2ncc(-c3cccc(NC(=O)c4ccccc4)c3)n2c1 [Compound 251]"
  pEC50: "5.00 to 6.00"
- molecule: "c1ccc(Nc2ccc3ncc(-c4ccccc4)n3c2)cc1 [Compound 75]"
  pEC50: "> 6.00"
- molecule: "c1cn2cc(N3CCOCC3)ccc2n1 [Compound 32]"
  pEC50: "5.00 to 6.00"
- molecule: "CN(C(=O)OC(C)(C)C)c1ccc2ncc(-c3cccc(NC(=O)[C@@H]4CCOC4)c3)n2c1 [Compound 238]"
  pEC50: "> 6.00"
- molecule: "CNc1ccc2ncc(-c3ccc(S(N)(=O)=O)cc3)n2c1 [Compound 63]"
  pEC50: "5.00 to 6.00"
- molecule: "CN(C(=O)OC(C)(C)C)c1ccc2ncc(-c3cccc(OCCOCc4ccccc4)c3)n2c1 [Compound 156]"
  pEC50: "5.00 to 6.00"
- molecule: "CN(C(=O)OC(C)(C)C)c1ccc2ncc(-c3cccs3)n2c1 [Compound 12]"
  pEC50: "> 6.00"
- molecule: "CC(C)(C)OC(=O)Nc1ccc2ncc(-c3cccc(NC(=O)COCCOCCOCC(=O)Nc4cccc(-c5cnc6ccc(NC(=O)OC(C)(C)C)cn56)c4)c3)n2c1 [Compound 123]"
  pEC50: "> 6.00"
- molecule: "CC(C)(C)OC(=O)N(C/C=C/c1cccc(N)c1)c1ccc2ncc(-c3cccc(NC(=O)C4CCOCC4)c3)n2c1 [Compound 219]"
  pEC50: "5.00 to 6.00"
- molecule: "CN(C(=O)OC(C)(C)C)c1ccc2ncc(-c3cccc(C(N)=O)c3)n2c1 [Compound 7]"
  pEC50: "5.00 to 6.00"
- molecule: "c1ccc(-c2cnc3ccc(N4CCOCC4)cn23)cc1 [Compound 34]"
  pEC50: "5.00 to 6.00"
- molecule: "CN(C(=O)OC(C)(C)C)c1ccc2ncc(-c3cccc4ncsc34)n2c1 [Compound 167]"
  pEC50: "> 6.00"
- molecule: "CNc1ccc2ncc(-c3cccc(C(=O)OC)c3)n2c1 [Compound 273]"
  pEC50: "5.00 to 6.00"
- molecule: "CN(C(=O)OC(C)(C)C)c1ccc2ncc(-c3cccc4c3CNC4=O)n2c1 [Compound 256]"
  pEC50: "5.00 to 6.00"

====

test target: SARM1 protein in iSARM1 (HEK293) cells (Homo sapiens, UniProt Q6SZW1)
Construct: The full-length SARM1 was synthesized into the pUC57 plasmid by WZ Biosciences Inc., and PCR was performed using pUC57-SARM1 as a DNA template
Sequence (Q6SZW1 28-724): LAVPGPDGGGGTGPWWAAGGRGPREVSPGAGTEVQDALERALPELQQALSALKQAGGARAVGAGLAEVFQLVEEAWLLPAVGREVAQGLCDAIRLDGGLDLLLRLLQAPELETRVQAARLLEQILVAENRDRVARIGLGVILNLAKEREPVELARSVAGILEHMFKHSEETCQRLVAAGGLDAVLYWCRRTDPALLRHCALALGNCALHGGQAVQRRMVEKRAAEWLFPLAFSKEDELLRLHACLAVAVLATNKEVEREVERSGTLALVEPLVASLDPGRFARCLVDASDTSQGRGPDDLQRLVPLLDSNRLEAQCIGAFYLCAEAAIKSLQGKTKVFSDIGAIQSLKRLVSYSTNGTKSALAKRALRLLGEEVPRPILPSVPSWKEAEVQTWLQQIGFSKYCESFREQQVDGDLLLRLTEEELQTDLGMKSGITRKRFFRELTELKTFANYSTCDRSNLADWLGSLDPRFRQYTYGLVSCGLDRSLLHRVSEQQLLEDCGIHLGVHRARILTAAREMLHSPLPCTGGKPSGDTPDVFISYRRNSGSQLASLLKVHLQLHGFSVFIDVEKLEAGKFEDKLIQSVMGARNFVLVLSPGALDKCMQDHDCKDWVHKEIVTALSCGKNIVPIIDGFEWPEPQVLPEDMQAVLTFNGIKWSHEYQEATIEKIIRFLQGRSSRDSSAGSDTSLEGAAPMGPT
method notes: Inhibitory activity in inducible SARM1 overexpressing cell line, intracellular cADPR level
test conditions: activator CZ-48 100 μM, cADPR content
pEC50: −log10 of the molar value.
The compounds listed here are annotated with their pEC50.

- compound: "O=C1CCCN1c1ccc2ncc(-c3cccc4[nH]ccc34)n2c1 [Compound 205]"
  test target: "SARM1 protein in iSARM1 (HEK293) cells (Homo sapiens, UniProt Q6SZW1)"
  pEC50: "> 6.00"
- compound: "CN(C(=O)OC(C)(C)C)c1ccc2ncc(-c3cccc(CNC(=O)OC(C)(C)C)c3)n2c1 [Compound 254]"
  test target: "SARM1 protein in iSARM1 (HEK293) cells (Homo sapiens, UniProt Q6SZW1)"
  pEC50: "5.00 to 6.00"
- compound: "CNc1ccc2ncc(-c3nn4ccnc4s3)n2c1 [Compound 185]"
  test target: "SARM1 protein in iSARM1 (HEK293) cells (Homo sapiens, UniProt Q6SZW1)"
  pEC50: "5.00 to 6.00"
- compound: "CN(C(=O)OC(C)(C)C)c1ccc2ncc(-c3cccnc3)n2c1 [Compound 15]"
  test target: "SARM1 protein in iSARM1 (HEK293) cells (Homo sapiens, UniProt Q6SZW1)"
  pEC50: "5.00 to 6.00"
- compound: "CN(C(=O)OC(C)(C)C)c1ccc2ncc(-c3cccc(N(C)C(=O)C4CCOCC4)c3)n2c1 [Compound 158]"
  test target: "SARM1 protein in iSARM1 (HEK293) cells (Homo sapiens, UniProt Q6SZW1)"
  pEC50: "> 6.00"

====

test target: dN-SARM1 protein (Homo sapiens, UniProt Q6SZW1)
Structures can show the parent of a compound that is named as a salt.
# IC50 values compiled below

- molecule: "CNc1ccc2ncc(-c3cccc(NC(=O)COCCOCC(=O)N[C@H](C(=O)N4C[C@H](O)C[C@H]4C(=O)NCc4ccc(-c5scnc5C)cc4)C(C)(C)C)c3)n2c1 [Compound 114, hydrochloride]"
  IC50: "< 1000 nM"
- molecule: "O=S1(=O)NCCOCCNc2ccc3ncc(n3c2)-c2cccc1c2 [Compound 81]"
  IC50: "1000 to 10000 nM"
- molecule: "CC(=O)N(C)c1ccc2ncc(-c3cccc(C(=O)NC4CCOCC4)c3)n2c1 [Compound 309]"
  IC50: "1000 to 10000 nM"
- molecule: "c1ccc(-c2cnc3ccc(NC4CCOC4)cn23)cc1 (stereo not shown) [Compound 87]"
  IC50: "< 1000 nM"
- molecule: "CNc1ccc2ncc(-c3ccc(S(N)(=O)=O)cc3)n2c1 [Compound 63]"
  IC50: "1000 to 10000 nM"
- molecule: "COc1cccn2c(-c3ccccc3)cnc12 [Compound 27]"
  IC50: "1000 to 10000 nM"
- molecule: "CNc1ccc2ncc(-c3ccnc4[nH]ccc34)n2c1 [Compound 166]"
  IC50: "< 1000 nM"
- molecule: "Brc1cnc2ccc(N3CCOCC3)cn12 [Compound 33]"
  IC50: "1000 to 10000 nM"
- molecule: "CN(C(=O)OC(C)(C)C)c1ccc2ncc(-c3ccc4ccncc4c3)n2c1 [Compound 270]"
  IC50: "< 1000 nM"
- molecule: "COC(=O)c1cccc(-c2cnc3ccc(N(C)C(=O)C(C)(C)C)cn23)c1 [Compound 301]"
  IC50: "< 1000 nM"
- molecule: "COCCOCC(=O)Nc1cccc(-c2cnc3ccc(NC(=O)COC)cn23)c1 [Compound 131]"
  IC50: "1000 to 10000 nM"
- molecule: "CNc1ccc2ncc(-c3cccc(OCC4CCOCC4)c3)n2c1 [Compound 154]"
  IC50: "< 1000 nM"
- molecule: "c1cn2cc(N3CCOCC3)ccc2n1 [Compound 32]"
  IC50: "1000 to 10000 nM"
- molecule: "CNc1ccc2ncc(-c3cccc4cnccc34)n2c1 [Compound 264]"
  IC50: "< 1000 nM"
- molecule: "CN(C(=O)OC(C)(C)C)c1ccc2ncc(-c3ccnc(N)c3)n2c1 [Compound 41]"
  IC50: "1000 to 10000 nM"
- molecule: "CN(C(=O)OC(C)(C)C)c1ccc2ncc(-c3cccs3)n2c1 [Compound 12]"
  IC50: "1000 to 10000 nM"
- molecule: "O=C(Nc1cccc(-c2cnc3ccc(N4CCOCC4)cn23)c1)[C@H]1C[C@H](N2CCOCC2)C1 [Compound 231]"
  IC50: "1000 to 10000 nM"
- molecule: "CNc1ccc2ncc(C(=O)Nc3ccccc3)n2c1 [Compound 105]"
  IC50: "1000 to 10000 nM"
- molecule: "CN1CCN(c2ccc3ncc(-c4ccccc4)n3c2)CC1 [Compound 37]"
  IC50: "1000 to 10000 nM"
